molecular target: alpha toxin (alpha-hemolysin) (Staphylococcus aureus, UniProt P09616 27-319); test: SPR; assay 2; […] (pH not stated); SPR temperature not stated; […]; conditions: protein: commercial; stem-loop (Mfold)
Sequence (P09616 27-319): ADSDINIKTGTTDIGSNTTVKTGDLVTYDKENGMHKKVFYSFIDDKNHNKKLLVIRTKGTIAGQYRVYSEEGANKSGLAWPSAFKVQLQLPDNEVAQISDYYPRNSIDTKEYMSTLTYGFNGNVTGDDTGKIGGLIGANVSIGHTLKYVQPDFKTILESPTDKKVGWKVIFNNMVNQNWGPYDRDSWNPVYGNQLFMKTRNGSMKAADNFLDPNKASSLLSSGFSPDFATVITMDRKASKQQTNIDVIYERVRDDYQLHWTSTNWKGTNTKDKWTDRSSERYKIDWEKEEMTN
observation type: Kd

QUERY: Find the recorded Kd belonging to R12.06 (5'-amino-C6) (ssDNA, 5' amino-C6) DNA: TGTACCGTCTGAGCGATTCGTACGATTACTATAATTTCCTATCGTCCGACCGCCGTCAGCCAGTCAGTGTTAAGGAGTGC and report it.
RESULT: 0.0887 µM
